src = patent US4169899A

System: peritoneal macrophages
Experiment: Release (secretion) of lysosomal enzymes from macrophages during phagocytosis
Format: cell-based
Settings: Rattus norvegicus, Peritoneal macrophage, 0.5 h, read-out: Secretion of Lysosomal Enzyme IC20, Macrophage, Macrophage; serum-treated zymosan, 37° C., 30 minutes
Procedure: (2) Assay of release of lysosomal enzymes from polymorphonuclear (PMN) leukocytes or macrophages during phagocytosis Preparation of rat peritoneal macrophages was carried out according to the method described by D. Gemsa et al in "Journal of Clinical Investigation",vol. 52, 812 (1973). […]

COMPOUND | IC20
CC(=O)Oc1ccccc1C(=O)O [AcetylsalicylicAcid, Acetylsalicylic Acid, reference compound] | 100000 nM
CN(C)CCN1C(=O)C(NC(=O)c2ccc(Cl)cc2)C(C)(C)SC1=S.Cc1ccc(S(=O)(=O)O)cc1 (stereo not shown) [Test Compound C, p-toluenesulfonate] | 100 nM
CC(C)(S)[C@@H](N)C(=O)O [D-Penicillamine, D-penicillamine, reference compound] | 1000 nM
CN(C)CCN1C(=O)C(NC(=O)c2ccc(NS(C)(=O)=O)cc2)C(C)(C)SC1=S.Cc1ccc(S(=O)(=O)O)cc1 (stereo not shown) [Test Compound D, p-toluenesulfonate] | 500 nM
